MEASUREMENT_PROTOCOL: Oral bioavailability in ICR mouse at 45 mg/kg measured after 0.083 to 12 hrs by UPLC-MS/MS analysis
Format: ADME, organism-based
EXPERIMENTAL_CONDITIONS: in vivo, time 0.083-12 hrs
READOUT_KIND: bioavailability (%)
Answer in %, number only, no unit symbol.

STRUCTURE_SMILES_STRING: C[C@H]1CCC/C=C/[C@@H]2C[C@H](OC(=O)OCc3cccnc3)C[C@H]2[C@H](O)/C=C/C(=O)O1
UNIT_NAME: %
VALUE_OBSERVED: 2.26

Entry under test: C[C@H]1CCC/C=C/[C@@H]2C[C@H](O)C[C@H]2[C@H](O)/C=C/C(=O)O1 . Its bioavailability was 19

----------
MEASUREMENT_PROTOCOL: Clearance in ICR mouse at 10 mg/kg, iv measured after 0.083 to 12 hrs by UPLC-MS/MS analysis
Type: ADME, organism-based
EXPERIMENTAL_CONDITIONS: in vivo, time 0.083-12 hrs
READOUT_KIND: clearance (mL/min/kg)
Number in mL/min/kg, nothing else.

Recorded clearance (molecule C[C@H]1CCC/C=C/[C@@H]2C[C@H](O)C[C@H]2[C@H](O)/C=C/C(=O)O1 ): 26.3

----------
MEASUREMENT_PROTOCOL: Solubility of the compound in saline/solutol HS-15 (90/10% V/V) at pH 7.4
Assay type: physicochemical
READOUT_KIND: solubility

Some compounds with recorded solubility:
COMPOUND: C[C@H]1CCC/C=C/[C@@H]2C[C@H](OC(=O)c3cccnc3)C[C@H]2[C@H](O)/C=C/C(=O)O1
solubility: < 1000 µg/mL
--
COMPOUND: C[C@H]1CCC/C=C/[C@@H]2C[C@H](O)C[C@H]2[C@H](O)/C=C/C(=O)O1 [BREFELDIN A]
solubility: < 1000 µg/mL

Now for the compound whose solubility we want.
Lab note: measured solubility of C[C@H]1CCC/C=C/[C@@H]2C[C@H](OC(=O)OCc3cccnc3)C[C@H]2[C@H](O)/C=C/C(=O)O1 was 5000 µg/mL

----------
MEASUREMENT_PROTOCOL: Cmax in ICR mouse at 45 mg/kg, po measured after 0.083 to 12 hrs by UPLC-MS/MS analysis
Format: ADME, organism-based
Parameters: dose 45 mg/kg, time upper 12 hrs, time lower 0.083 hrs, route po
EXPERIMENTAL_CONDITIONS: in vivo
Reported Cmax values for the following compounds.
Only the number, expressed in ng/mL, is required.

COMPOUND: C[C@H]1CCC/C=C/[C@@H]2C[C@H](O)C[C@H]2[C@H](O)/C=C/C(=O)O1 [BREFELDIN A]
UNIT_NAME: ng/mL
Cmax: 7140

Next up:
Memo: C[C@H]1CCC/C=C/[C@@H]2C[C@H](OC(=O)OCc3cccnc3)C[C@H]2[C@H](O)/C=C/C(=O)O1 , reported Cmax: 20.3

----------
The following compounds are listed with their measured AUC(0-t) values.
MEASUREMENT_PROTOCOL: AUC (0 to t) in ICR mouse at 45 mg/kg, po measured after 0.083 to 12 hrs by UPLC-MS/MS analysis
Assay type: ADME, organism-based
Set-up: dose 45 mg/kg, time upper 12 hrs, time lower 0.083 hrs, route po
EXPERIMENTAL_CONDITIONS: in vivo

STRUCTURE_SMILES_STRING: C[C@H]1CCC/C=C/[C@@H]2C[C@H](O)C[C@H]2[C@H](O)/C=C/C(=O)O1
VALUE_OBSERVED: 4130 ng·h/mL

Proceed to the following item.
// sample C[C@H]1CCC/C=C/[C@@H]2C[C@H](OC(=O)OCc3cccnc3)C[C@H]2[C@H](O)/C=C/C(=O)O1 , its AUC(0-t) was 52.9 ng·h/mL

----------
MEASUREMENT_PROTOCOL: Half life in ICR mouse at 45 mg/kg, po measured after 0.083 to 12 hrs by UPLC-MS/MS analysis
Format: ADME, organism-based
EXPERIMENTAL_CONDITIONS: in vivo, time 0.083-12 hrs
Reported half-life values for a set of compounds
Output spec: scalar in h, unitless text.

STRUCTURE_SMILES_STRING: C[C@H]1CCC/C=C/[C@@H]2C[C@H](OC(=O)OCc3cccnc3)C[C@H]2[C@H](O)/C=C/C(=O)O1
UNIT_NAME: h
half-life: 7.35

The compound listed as C[C@H]1CCC/C=C/[C@@H]2C[C@H](O)C[C@H]2[C@H](O)/C=C/C(=O)O1 has a reported half-life of 2.12

----------
MEASUREMENT_PROTOCOL: Clearance in ICR mouse at 45 mg/kg, po measured after 0.083 to 12 hrs by UPLC-MS/MS analysis
Format: ADME, organism-based
EXPERIMENTAL_CONDITIONS: in vivo, time 0.083-12 hrs
READOUT_KIND: CL/F (L/h/kg)
Form entry: value (L/h/kg) — number only.

STRUCTURE_SMILES_STRING: C[C@H]1CCC/C=C/[C@@H]2C[C@H](OC(=O)OCc3cccnc3)C[C@H]2[C@H](O)/C=C/C(=O)O1
CL/F (L/h/kg): 598

Kindly consider the entry below.
GET /value?item= C[C@H]1CCC/C=C/[C@@H]2C[C@H](O)C[C@H]2[C@H](O)/C=C/C(=O)O1 &field=CL/F returns 10.4

----------
pIC50 values for the compounds below.
Test system: Bel-7402
MEASUREMENT_PROTOCOL: Antiproliferative activity against human Bel-7402 cells by MTT assay
Type: functional, cell-based
For clarity, pIC50 is expressed as the negative log10 of concentration in mol/L.

Some solved entries appear below for comparison.
STRUCTURE_SMILES_STRING: C[C@H]1CCC/C=C/[C@@H]2C[C@H](OC(=O)OCc3cccnc3)C[C@H]2[C@H](O)/C=C/C(=O)O1
pIC50: 7.15

STRUCTURE_SMILES_STRING: C[C@H]1CCC/C=C/[C@@H]2C[C@H](O)C[C@H]2[C@H](OC(=O)c2cccnc2)/C=C/C(=O)O1
pIC50: 6.57

STRUCTURE_SMILES_STRING: C[C@H]1CCC/C=C/[C@@H]2C[C@H](OC(=O)c3cccnc3)C[C@H]2[C@H](O)/C=C/C(=O)O1
pIC50: 6.41

STRUCTURE_SMILES_STRING: C[C@H]1CCC/C=C/[C@@H]2C[C@H](O)C[C@H]2[C@H](O)/C=C/C(=O)O1
pIC50: 7.15

STRUCTURE_SMILES_STRING: C[C@H]1CCC/C=C/[C@@H]2C[C@H](OC(=O)OCc3cccnc3)C[C@H]2[C@H](OC(=O)OCc2cccnc2)/C=C/C(=O)O1
pIC50: 6.37

Let us examine a further case.
get_value(item= C[C@H]1CCC/C=C/[C@@H]2C[C@H](O)C[C@H]2[C@H](OC(=O)OCc2cccnc2)/C=C/C(=O)O1 , readout=pIC50) returns 6.57

----------
Listed next: entries and their corresponding solubility.
MEASUREMENT_PROTOCOL: Solubility of the compound in PBS/DMSO (95/5% V/V) at pH 7.2 to 7.4
Assay type: physicochemical

// solved cases for solubility follow
STRUCTURE_SMILES_STRING: C[C@H]1CCC/C=C/[C@@H]2C[C@H](OC(=O)c3cccnc3)C[C@H]2[C@H](O)/C=C/C(=O)O1
VALUE_OBSERVED: < 1000 µg/mL
--
STRUCTURE_SMILES_STRING: C[C@H]1CCC/C=C/[C@@H]2C[C@H](O)C[C@H]2[C@H](O)/C=C/C(=O)O1
VALUE_OBSERVED: < 1000 µg/mL

Now consider the entry below.
# solubility (molecule: C[C@H]1CCC/C=C/[C@@H]2C[C@H](OC(=O)OCc3cccnc3)C[C@H]2[C@H](O)/C=C/C(=O)O1 ) is < 1000 µg/mL

----------
Measured solubility, listed per entry for reference.
MEASUREMENT_PROTOCOL: Solubility of the compound in saline/DMSO (95/5% V/V) at pH 7.4
Format: physicochemical

Here are 2 compounds together with their reported answers.
STRUCTURE_SMILES_STRING: C[C@H]1CCC/C=C/[C@@H]2C[C@H](OC(=O)OCc3cccnc3)C[C@H]2[C@H](O)/C=C/C(=O)O1
solubility: < 1000 µg/mL
--
STRUCTURE_SMILES_STRING: C[C@H]1CCC/C=C/[C@@H]2C[C@H](O)C[C@H]2[C@H](O)/C=C/C(=O)O1
solubility: < 1000 µg/mL

Proceed to the following item.
Per the record, C[C@H]1CCC/C=C/[C@@H]2C[C@H](OC(=O)c3cccnc3)C[C@H]2[C@H](O)/C=C/C(=O)O1 has solubility of < 1000 µg/mL
